Here, each record is paired with measured pIC50 data.
# target_desc: human GlyT1b (Homo sapiens, UniProt P48067)
# Construct: expressed in transfected cells
# assay_comment: [3H]Glycine Uptake Assay (SPA) in hGlyT1b/CHO cells
# Type: cell-based
# test_conditions: compounds of Formula Ib, read at 2 h
# pIC50 = -log10(concentration in molar units)

Request: Recall and state the measured pIC50 for CN1CC2CCC1(C(NC(=O)c1cccc(F)c1Cl)c1ccccc1)CC2 (stereo not shown) .
Result: 7.92

====

# target_desc: human GlyT1b (Homo sapiens, UniProt P48067)
# Construct: expressed in transfected cells
# Sequence (P48067 1-652 isoform P48067-3): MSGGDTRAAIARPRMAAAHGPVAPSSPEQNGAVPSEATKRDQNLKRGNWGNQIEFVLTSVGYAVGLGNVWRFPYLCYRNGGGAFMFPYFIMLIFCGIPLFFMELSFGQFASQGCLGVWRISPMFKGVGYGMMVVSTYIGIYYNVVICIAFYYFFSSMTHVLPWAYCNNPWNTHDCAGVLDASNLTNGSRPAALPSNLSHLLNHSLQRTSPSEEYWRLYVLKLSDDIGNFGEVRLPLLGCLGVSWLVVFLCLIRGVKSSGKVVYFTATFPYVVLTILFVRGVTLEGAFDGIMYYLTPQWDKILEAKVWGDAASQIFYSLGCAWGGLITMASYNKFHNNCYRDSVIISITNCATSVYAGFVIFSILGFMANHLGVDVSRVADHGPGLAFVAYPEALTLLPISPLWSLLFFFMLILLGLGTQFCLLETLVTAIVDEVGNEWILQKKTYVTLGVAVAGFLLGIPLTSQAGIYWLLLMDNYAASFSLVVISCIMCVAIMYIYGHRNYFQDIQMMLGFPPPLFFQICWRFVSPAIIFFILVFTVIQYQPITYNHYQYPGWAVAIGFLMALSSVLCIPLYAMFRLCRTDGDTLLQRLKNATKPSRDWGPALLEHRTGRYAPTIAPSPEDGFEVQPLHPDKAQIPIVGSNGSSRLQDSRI
# assay_comment: [3H]Glycine Uptake Assay (SPA) in hGlyT1b/CHO cells
# Assay type: cell-based
# test_conditions: compounds of Formula Ia, read at 2 h
measurement_label: IC50 (nM)
Number only, in nM; omit the unit.

O=C(NC(c1ccccc1)C12CCC(CC1)CN2)c1cccc(C(F)(F)F)c1Cl (centres unmarked): 258
O=C(NC(c1ccccc1)C12CCC(CC1)CN2)c1cccc(C(F)(F)F)c1Cl (single isomer, unassigned) [drawing 103]: 198
O=C(NC(c1ccccc1)C12CCC(CC1)CN2)c1cccc(C(F)(F)F)c1Cl (single isomer, unassigned) [drawing 102]: 455
O=C(NC(c1ccccc1)C12CCC(CC1)CN2)c1cccc(Cl)c1Cl (single isomer, unassigned): 99.7

Turning to the following compound.
Request: // output IC50; input Cc1c(C(=O)NC(c2ccccc2)C23CCC(CC2)CN3)cccc1C(F)(F)F (single isomer, unassigned) ; system human GlyT1b (Homo sapiens, UniProt P48067)
Result: 67.6

====

# target_desc: human GlyT1b (Homo sapiens)
# Construct: expressed in transfected cells
# assay_comment: [3H]Glycine Uptake Assay (SPA) in hGlyT1b/CHO cells
# Format: cell-based
# test_conditions: compounds of Formula Ib, read at 2 h
measurement_label: pIC50
A value of pIC50 is the negative decimal logarithm of a concentration given in moles per litre.

Previously resolved entries follow.
CN1CC2CCC1(C(NC(=O)c1ccc(F)cc1Cl)c1ccccc1)CC2 (stereo not shown) [drawing 37]: 8.07
CN1CC2CCC1(C(NC(=O)c1cc(C(F)(F)F)ccc1C(F)(F)F)c1ccccc1)CC2 (stereo not shown): 7.06

Attention now turns to another entry.
Request: Input CN1CC2CCC1(C(NC(=O)c1cccc(F)c1Br)c1ccccc1)CC2 (stereo not shown) , output reported pIC50.
Result: 7.59
